# System: NCI-H64 (Small Cell Lung Carcinoma)
# ASSAY_TEXT: combination Emax (second highest fraction inhibited in the dose matrix, 72 h); higher = more inhibition; extreme values may be limits of the assay
Reported combination Emax values are given for each entry in this list.
# answer = number (no unit)

C[C@@H](Oc1cc(-c2cnn(C3CCNCC3)c2)cnc1N)c1c(Cl)ccc(F)c1Cl [Crizotinib] + CC1=C(C(=CC=C1)Cl)NC(=O)C2=CN=C(S2)NC3=CC(=NC(=N3)C)N4CCN(CC4)CCO [Dasatinib] (first compound max 10 µM, 7x7, partner max 2 µM) ... 0.594
COc1cccc(OCCCN)c1-c1cc(Nc2cnc(C#N)cn2)n[nH]1 [Prexasertib] + O=C(c1cc(Cc2n[nH]c(=O)c3ccccc23)ccc1F)N1CCN(C(=O)C2CC2)CC1 [Olaparib] (first compound max 1 µM, 7x7, partner max 10 µM) ... 0.835
COc1cc2ncnc(Nc3ccc(F)c(Cl)c3)c2cc1OCCCN1CCOCC1 [Gefitinib] + CC(C)n1c(=O)n(C)c2cnc3cc(F)c(-c4ccc(OCCCN5CCCCC5)nc4)cc3c21 [AZD1390] (first compound max 10 µM, 7x7, partner max 0.3 µM) ... 0.152
C=CCn1c(=O)c2cnc(Nc3ccc(N4CCN(C)CC4)cc3)nc2n1-c1cccc(C(C)(C)O)n1 [AZD1775] + O=C(c1cc(Cc2n[nH]c(=O)c3ccccc23)ccc1F)N1CCN(C(=O)C2CC2)CC1 [Olaparib] (first compound max 1 µM, partner max 10 µM) ... 0.869
Cc1c2c(nn1C)CSCc1cc(n(C)n1)CSc1cc(c3ccccc3c1)OCCCc1c(C(=O)O)n(C)c3c-2c(Cl)ccc13 [AZD5991] + C=CCn1c(=O)c2cnc(Nc3ccc(N4CCN(C)CC4)cc3)nc2n1-c1cccc(C(C)(C)O)n1 [AZD1775] (first compound max 1 µM, partner max 1 µM) ... 0.933
C=CCn1c(=O)c2cnc(Nc3ccc(N4CCN(C)CC4)cc3)nc2n1-c1cccc(C(C)(C)O)n1 [AZD1775] + CCc1c2c(nc3ccc(O)cc13)-c1cc3c(c(=O)n1C2)COC(=O)[C@]3(O)CC [SN-38] (first compound max 1 µM, partner max 0.3 µM) ... 0.887

Let us move to another entry and its combination Emax.
Look at this compound and give its reported combination Emax. CCc1c2c(nc3ccc(O)cc13)-c1cc3c(c(=O)n1C2)COC(=O)[C@]3(O)CC [SN-38] + O=C(c1cc(Cc2n[nH]c(=O)c3ccccc23)ccc1F)N1CCN(C(=O)C2CC2)CC1 [Olaparib] (first compound max 0.3 µM, 7x7, partner max 10 µM)
0.396

---

# Tested on: COR-L311 (Small Cell Lung Carcinoma);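 also: after 72 h of two-drug dosing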
# ASSAY_TEXT: Bliss excess, mean over the matrix (fraction); higher = more synergy
Met means recorded Bliss excess is -0.02 or above; Not met means it is below -0.02.

Identify whether the reported Bliss excess of the following compound is -0.02 or greater: Cn1cnc2c(F)c(Nc3ccc(Br)cc3Cl)c(C(=O)NOCCO)cc21 [Selumetinib] + C[C@@H]1COCCN1C2=NC(=NC(=C2)C3(CC3)[S@](=N)(=O)C)C4=C5C=CNC5=NC=C4 [AZD6738] (first compound max 10 µM, 7x7, partner max 10 µM)
Not met

What would you report for CC1(C)CCC(CN2CCN(c3ccc(C(=O)NS(=O)(=O)c4ccc(NCC5CCOCC5)c([N+](=O)[O-])c4)c(Oc4cnc5[nH]ccc5c4)c3)CC2)=C(c2ccc(Cl)cc2)C1 [Venetoclax] + C=CCn1c(=O)c2cnc(Nc3ccc(N4CCN(C)CC4)cc3)nc2n1-c1cccc(C(C)(C)O)n1 [AZD1775] (first compound max 1 µM, partner max 1 µM) ?
Not met

What would you report for Cc1c2c(nn1C)CSCc1cc(n(C)n1)CSc1cc(c3ccccc3c1)OCCCc1c(C(=O)O)n(C)c3c-2c(Cl)ccc13 [AZD5991] + C=CCn1c(=O)c2cnc(Nc3ccc(N4CCN(C)CC4)cc3)nc2n1-c1cccc(C(C)(C)O)n1 [AZD1775] (first compound max 1 µM, partner max 1 µM) ?
Not met

What would you report for COc1nnc2ccc(N3CCC(c4ccc(OCCN5CCN(C)C(=O)[C@H]5C)cc4)CC3)nn12 [AZD5153] + Cc1c2c(nn1C)CSCc1cc(n(C)n1)CSc1cc(c3ccccc3c1)OCCCc1c(C(=O)O)n(C)c3c-2c(Cl)ccc13 [AZD5991] (first compound max 1 µM, 7x7, partner max 1 µM) ?
Not met

What would you report for CCN(CCO)CCCOc1ccc2c(Nc3cc(CC(=O)Nc4cccc(F)c4)[nH]n3)ncnc2c1 [AZD2811] + C[C@@H]1COCCN1C2=NC(=NC(=C2)C3(CC3)[S@](=N)(=O)C)C4=C5C=CNC5=NC=C4 [AZD6738] (first compound max 1 µM, 7x7, partner max 10 µM) ?
Not met
